Target: Progesterone receptor (Homo sapiens, UniProt P06401)
Sequence (P06401 whole entry): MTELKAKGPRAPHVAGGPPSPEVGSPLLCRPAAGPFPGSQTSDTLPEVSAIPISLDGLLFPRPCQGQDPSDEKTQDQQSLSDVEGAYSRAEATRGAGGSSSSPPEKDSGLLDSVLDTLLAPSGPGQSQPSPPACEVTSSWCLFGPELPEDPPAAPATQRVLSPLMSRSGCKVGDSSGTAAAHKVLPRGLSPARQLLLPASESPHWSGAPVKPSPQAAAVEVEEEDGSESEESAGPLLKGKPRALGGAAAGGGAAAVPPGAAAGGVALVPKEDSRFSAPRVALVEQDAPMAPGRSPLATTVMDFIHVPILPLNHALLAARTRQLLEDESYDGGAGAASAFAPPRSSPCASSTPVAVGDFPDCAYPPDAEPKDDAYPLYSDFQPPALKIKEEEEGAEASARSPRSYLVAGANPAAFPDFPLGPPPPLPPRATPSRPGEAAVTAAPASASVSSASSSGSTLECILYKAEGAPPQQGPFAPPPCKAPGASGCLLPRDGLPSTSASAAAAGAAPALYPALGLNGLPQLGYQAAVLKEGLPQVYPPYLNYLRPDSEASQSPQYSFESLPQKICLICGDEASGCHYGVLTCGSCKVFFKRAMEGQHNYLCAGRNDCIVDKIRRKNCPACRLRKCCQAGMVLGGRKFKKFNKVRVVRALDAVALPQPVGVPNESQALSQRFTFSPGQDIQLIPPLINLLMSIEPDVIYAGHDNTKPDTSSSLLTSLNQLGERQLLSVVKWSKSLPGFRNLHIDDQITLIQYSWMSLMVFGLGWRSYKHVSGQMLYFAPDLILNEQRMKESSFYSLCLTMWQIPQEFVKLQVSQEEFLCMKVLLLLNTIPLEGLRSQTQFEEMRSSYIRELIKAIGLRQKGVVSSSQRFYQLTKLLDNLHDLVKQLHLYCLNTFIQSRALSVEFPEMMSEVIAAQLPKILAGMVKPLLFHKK
Test: Effective concentration of progesterone receptor agonist induction of alkaline phosphatase activity in human T47D breast carcinoma cells
Assay type: functional, cell-based
pEC50: −log10 of the molar value.
value_type: pEC50

smiles_input=CN1C(=S)C2(CCCCC2)c2cc(-c3cccc(Cl)c3)ccc21 value_type=pEC50 data_value="< 5.52"

====

In this section we review reported IC50 values for a set of compounds.
Target: Progesterone receptor (Rattus norvegicus, UniProt Q63449)
Sequence (Q63449 whole entry): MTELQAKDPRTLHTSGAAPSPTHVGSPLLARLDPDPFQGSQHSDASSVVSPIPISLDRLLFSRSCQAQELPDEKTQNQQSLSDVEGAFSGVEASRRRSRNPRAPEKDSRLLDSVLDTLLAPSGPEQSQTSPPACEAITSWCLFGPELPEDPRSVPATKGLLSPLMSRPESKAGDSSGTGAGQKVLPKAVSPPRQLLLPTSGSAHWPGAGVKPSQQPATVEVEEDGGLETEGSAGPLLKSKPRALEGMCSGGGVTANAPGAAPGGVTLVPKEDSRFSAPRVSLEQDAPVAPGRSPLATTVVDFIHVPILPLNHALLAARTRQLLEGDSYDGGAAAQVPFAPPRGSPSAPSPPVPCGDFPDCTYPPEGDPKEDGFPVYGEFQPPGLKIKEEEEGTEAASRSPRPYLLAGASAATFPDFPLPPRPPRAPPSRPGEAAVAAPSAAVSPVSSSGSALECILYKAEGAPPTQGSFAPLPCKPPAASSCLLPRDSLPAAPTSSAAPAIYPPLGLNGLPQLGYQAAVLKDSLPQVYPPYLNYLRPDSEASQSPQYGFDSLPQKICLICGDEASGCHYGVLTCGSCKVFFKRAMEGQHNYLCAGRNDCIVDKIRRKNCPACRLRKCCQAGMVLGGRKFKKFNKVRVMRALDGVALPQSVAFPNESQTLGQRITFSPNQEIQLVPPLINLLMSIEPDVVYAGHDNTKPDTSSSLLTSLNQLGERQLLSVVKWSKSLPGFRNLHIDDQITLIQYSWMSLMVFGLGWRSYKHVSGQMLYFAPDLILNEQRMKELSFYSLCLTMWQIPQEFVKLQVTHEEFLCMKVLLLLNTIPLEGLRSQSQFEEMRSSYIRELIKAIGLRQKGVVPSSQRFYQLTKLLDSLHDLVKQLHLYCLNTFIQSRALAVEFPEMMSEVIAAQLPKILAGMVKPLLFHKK
Experiment: Inhibitory progestational activity on oral administration in uterine C3 model
Format: functional, organism-based
value_type: IC50 (mg/kg)

compound="CC(=O)O[C@]1(C(C)=O)CC[C@H]2[C@@H]3C[C@H](C)C4=CC(=O)CC[C@]4(C)[C@H]3CC[C@@]21C [MEDROXYPROGESTERONE ACETATE]" study_target="Progesterone receptor (Rattus norvegicus, UniProt Q63449)" value_type=IC50 data_value=0.026
compound=SC1=Nc2ccc(-c3cccc(Cl)c3)cc2C12CCCCC2 study_target="Progesterone receptor (Rattus norvegicus, UniProt Q63449)" value_type=IC50 data_value=0.37
compound=N#Cc1cccc(-c2ccc3c(c2)C2(CCCCC2)C(=S)N3)c1 study_target="Progesterone receptor (Rattus norvegicus, UniProt Q63449)" value_type=IC50 data_value=0.3
compound=N#Cc1ccc(-c2ccc3c(c2)C2(CCCCC2)C(S)=N3)s1 study_target="Progesterone receptor (Rattus norvegicus, UniProt Q63449)" value_type=IC50 data_value=0.03
compound=N#Cc1cc(F)cc(-c2ccc3c(c2)C2(CCCCC2)C(S)=N3)c1 study_target="Progesterone receptor (Rattus norvegicus, UniProt Q63449)" value_type=IC50 data_value=0.025
